The reported measurements were obtained from patent US20250170248A1.

Documented DC50 across a set of molecules
Tested System: SMARCA2 (Homo sapiens, UniProt P51531)
Sequence (P51531 whole entry): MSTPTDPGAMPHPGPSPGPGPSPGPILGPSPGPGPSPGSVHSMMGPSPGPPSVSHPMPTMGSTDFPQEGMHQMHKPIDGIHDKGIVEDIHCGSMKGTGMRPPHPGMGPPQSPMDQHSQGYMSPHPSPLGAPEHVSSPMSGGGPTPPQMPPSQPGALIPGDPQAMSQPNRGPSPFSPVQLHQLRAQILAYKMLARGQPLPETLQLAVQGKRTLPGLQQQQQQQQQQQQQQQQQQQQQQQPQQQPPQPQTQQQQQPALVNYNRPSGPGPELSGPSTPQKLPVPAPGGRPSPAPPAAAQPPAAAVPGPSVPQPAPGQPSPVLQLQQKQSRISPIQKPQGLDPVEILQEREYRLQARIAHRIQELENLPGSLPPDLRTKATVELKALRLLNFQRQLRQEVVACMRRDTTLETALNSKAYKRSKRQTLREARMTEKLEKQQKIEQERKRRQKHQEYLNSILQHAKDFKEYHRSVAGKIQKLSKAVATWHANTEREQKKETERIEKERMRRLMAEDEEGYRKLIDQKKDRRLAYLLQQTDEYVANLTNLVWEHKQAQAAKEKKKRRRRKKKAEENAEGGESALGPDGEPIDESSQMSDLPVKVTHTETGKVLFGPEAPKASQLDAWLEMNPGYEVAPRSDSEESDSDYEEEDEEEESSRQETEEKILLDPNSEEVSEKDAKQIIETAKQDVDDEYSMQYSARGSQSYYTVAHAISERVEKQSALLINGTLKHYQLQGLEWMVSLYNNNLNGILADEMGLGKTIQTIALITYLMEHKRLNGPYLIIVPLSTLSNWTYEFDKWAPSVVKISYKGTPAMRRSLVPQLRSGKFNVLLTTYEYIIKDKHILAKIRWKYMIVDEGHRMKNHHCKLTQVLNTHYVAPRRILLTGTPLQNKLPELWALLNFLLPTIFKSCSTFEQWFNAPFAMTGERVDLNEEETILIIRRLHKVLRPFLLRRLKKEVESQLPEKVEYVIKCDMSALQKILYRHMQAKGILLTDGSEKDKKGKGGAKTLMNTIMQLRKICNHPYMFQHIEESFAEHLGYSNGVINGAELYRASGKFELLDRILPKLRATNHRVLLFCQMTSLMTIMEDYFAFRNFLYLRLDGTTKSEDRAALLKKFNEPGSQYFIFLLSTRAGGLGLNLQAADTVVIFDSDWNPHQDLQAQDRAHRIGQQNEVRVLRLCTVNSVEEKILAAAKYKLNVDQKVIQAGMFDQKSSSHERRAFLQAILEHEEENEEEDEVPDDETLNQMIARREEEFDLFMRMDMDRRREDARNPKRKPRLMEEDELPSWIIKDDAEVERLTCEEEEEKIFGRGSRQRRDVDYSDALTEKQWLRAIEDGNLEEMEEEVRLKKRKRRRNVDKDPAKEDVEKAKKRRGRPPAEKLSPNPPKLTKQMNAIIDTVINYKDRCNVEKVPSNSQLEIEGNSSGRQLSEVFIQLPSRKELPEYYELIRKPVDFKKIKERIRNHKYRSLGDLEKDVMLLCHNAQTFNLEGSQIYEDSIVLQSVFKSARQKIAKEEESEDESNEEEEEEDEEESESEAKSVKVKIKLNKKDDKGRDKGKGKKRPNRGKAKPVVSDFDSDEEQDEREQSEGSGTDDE
Method: MSD SMARCA2 degradation in A549 cell line
Format: cell-based
Assay Conditions: A549 cells, 24 h, read-out: SMARCA2 MSD A549 degradation 24 h: Average external-Abs DC50
Quantity Measured: DC50

>>> result("C#Cc1ccc([C@H](C)NC(=O)[C@@H]2C[C@@H](O)CN2C(=O)[C@@H](NC(=O)N2CC3(CC(N4CCC(c5cnc(N6CCc7[nH]c8nnc(-c9ccccc9O)cc8c7[C@H]6C)nc5)CC4)C3)C2)C(C)(C)C)c(OC)c1 [I-167]")
"10 to 50 nM"
>>> result("C#CCOc1cc(C(C(=O)N2C[C@H](O)C[C@H]2C(=O)NCc2ccc(-c3scnc3C)cc2O[C@H]2CC[C@@H](N3CCC(c4cnc(N5CCc6[nH]c7nnc(-c8ccccc8O)cc7c6[C@H]5C)nc4)CC3)CC2)C(C)C)on1 (single isomer, unassigned) [I-37]")
"< 10 nM"
>>> result("C#Cc1ccc(CNC(=O)[C@@H]2C[C@@H](O)CN2C(=O)[C@@H](NC(=O)[C@H]2CCC3(CC2)C[C@H](N2CCC(c4cnc(N5CCN6c7cc(-c8cccc(Cl)c8O)nnc7NC[C@@H]6C5)nc4)CC2)C3)C(C)(C)C)cc1 (single isomer, unassigned) [I-154]")
"> 100 nM"
>>> result("Cc1ncsc1-c1ccc(CNC(=O)[C@@H]2C[C@@H](O)CN2C(=O)C(c2cc(N3CCC(CCN4CCC(c5cnc(N6CCc7[nH]c8nnc(-c9ccccc9O)cc8c7[C@H]6C)nc5)CC4)CC3)no2)C(C)C)cc1 (stereo partly shown) [I-7]")
"10 to 50 nM"
>>> result("C#Cc1ccc(CNC(=O)[C@@H]2C[C@@H](O)CN2C(=O)[C@@H](NC(=O)N2CC3(CC(N4C[C@H]5CN(c6cnc(N7CCc8[nH]c9nnc(-c%10ccccc%10O)cc9c8[C@H]7C)nc6)C[C@H]5C4)C3)C2)C(C)(C)C)cc1 [I-171]")
"> 100 nM"
>>> result("C#Cc1ccc([C@H](C)NC(=O)[C@@H]2C[C@@H](O)CN2C(=O)[C@@H](NC(=O)N2CC3(CC(N4CCC(N5CCC(N6CCc7[nH]c8nnc(-c9ccccc9O)cc8c7[C@H]6C)CC5)CC4)C3)C2)C(C)(C)C)cc1 [I-212]")
"> 100 nM"
>>> result("C#Cc1ccc(CNC(=O)[C@@H]2C[C@@H](O)CN2C(=O)[C@@H](NC(=O)[C@H]2CC3(C2)C[C@H](c2cnc(N4CCC(N5CCN6c7cc(-c8ccccc8O)nnc7NC[C@H]6C5)CC4)nc2)C3)C(C)(C)C)cc1 (single isomer, unassigned) [I-301]")
"10 to 50 nM"
>>> result("Cc1ncsc1-c1ccc(CNC(=O)[C@@H]2C[C@@H](O)CN2C(=O)[C@@H](NC(=O)N2CC3(CCC(N4CCC(c5cnc(N6CCc7[nH]c8nnc(-c9ccccc9O)cc8c7[C@@H]6C)nc5)CC4)CC3)C2)C(C)(C)C)cc1 (single isomer, unassigned) [I-63]")
"10 to 50 nM"
>>> result("C#Cc1cnc(CNC(=O)[C@@H]2C[C@@H](O)CN2C(=O)[C@@H](NC(=O)[C@H]2CCC3(CC2)C[C@H](N2CCC(c4cnc(N5CCN6c7cc(-c8ccccc8O)nnc7NC[C@H]6C5)nc4)CC2)C3)C(C)(C)C)c(OC)c1 (single isomer, unassigned) [I-298]")
"10 to 50 nM"
>>> result("C#Cc1ccc(CNC(=O)[C@@H]2C[C@@H](O)CN2C(=O)[C@@H](NC(=O)[C@H]2CC3(C2)C[C@H](N2CCC(N4CCC(N5CCN6c7cc(-c8ccccc8O)nnc7NC[C@H]6C5)CC4)CC2)C3)C(C)(C)C)c(OC)c1 (single isomer, unassigned) [I-231]")
"50 to 100 nM"
>>> result("Cn1nccc1-c1ccc(CNC(=O)[C@@H]2C[C@@H](O)CN2C(=O)[C@@H](NC(=O)[C@H]2CC[C@@H](c3ccc(-c4cnc(N5CCN6c7cc(-c8ccccc8O)nnc7NC[C@H]6C5)nc4)cc3)CC2)C(C)(C)C)cc1 (single isomer, unassigned) [I-88]")
"< 10 nM"
>>> result("Cc1ncsc1-c1ccc(CNC(=O)[C@@H]2C[C@@H](O)CN2C(=O)C(c2cc(N3CCC(CCN4CCC(c5cnc(N6CCc7[nH]c8nnc(-c9ccccc9O)cc8c7[C@@H]6C)nc5)CC4)CC3)no2)C(C)C)cc1 (single isomer, unassigned) [I-8]")
"10 to 50 nM"
>>> result("C#Cc1ccc(CNC(=O)[C@@H]2C[C@@H](O)CN2C(=O)[C@@H](NC(=O)N2CC3(CC(N4CCC(N5CCC(N6CCc7[nH]c8nnc(-c9ccccc9O)cc8c7[C@@H]6C)CC5)CC4)C3)C2)C(C)(C)C)cc1 [I-180]")
"> 100 nM"
>>> result("C#Cc1ccc(CNC(=O)[C@@H]2C[C@@H](O)CN2C(=O)[C@@H](NC(=O)N2CC3(CC(N4CCC(c5cnc(N6CCc7[nH]c8nnc(-c9ccccc9O)cc8c7[C@@H]6C)nc5)CC4)C3)C2)C(C)(C)C)c(OCCCOC)c1 [I-227]")
"50 to 100 nM"
>>> result("C#Cc1ccc([C@H](C)NC(=O)[C@@H]2C[C@@H](O)CN2C(=O)[C@@H](NC(=O)N2CC3(CC(N4CCC(c5cnc(N6CCc7[nH]c8nnc(-c9ccccc9O)cc8c7[C@H]6CO)nc5)CC4)C3)C2)C(C)(C)C)cc1 [I-321]")
"10 to 50 nM"
>>> result("Cc1ncsc1-c1ccc(CNC(=O)[C@@H]2C[C@@H](O)CN2C(=O)[C@@H](OC(=O)N2CC3(CC(N4CCN(c5cnc(N6CCN7c8cc(-c9ccccc9O)nnc8NC[C@H]7C6)nc5)CC4)C3)C2)C(C)(C)C)cc1 [I-96]")
"< 10 nM"
